Hey, just so you know, these numbers are from ChEMBL document CHEMBL3425429.

Biological target: Dual specificity mitogen-activated protein kinase kinase 1 (Homo sapiens)
Sequence (Q02750 whole entry): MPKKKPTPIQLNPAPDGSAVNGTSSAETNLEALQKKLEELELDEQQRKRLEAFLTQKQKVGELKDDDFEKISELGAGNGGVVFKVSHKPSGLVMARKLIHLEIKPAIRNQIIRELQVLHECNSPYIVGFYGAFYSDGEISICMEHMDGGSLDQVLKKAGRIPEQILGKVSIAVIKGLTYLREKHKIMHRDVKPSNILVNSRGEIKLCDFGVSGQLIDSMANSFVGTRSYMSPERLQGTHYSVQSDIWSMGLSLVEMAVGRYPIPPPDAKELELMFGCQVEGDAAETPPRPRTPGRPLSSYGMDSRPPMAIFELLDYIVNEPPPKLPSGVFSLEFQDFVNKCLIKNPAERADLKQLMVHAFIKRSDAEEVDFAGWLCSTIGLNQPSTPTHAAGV
Experiment: Inhibition of human MEK1
pIC50: −log10 of the molar value.
readout_kind: pIC50

-- ask Determine from records and report pIC50 for "CCn1nc(C#Cc2cc(C(=O)Nc3ccc(CN4CCN(C)CC4)c(C(F)(F)F)c3)ccc2C)c2c(N)ncnc21"
-- reply < 5.00

----------
Assay: Tmax in Sprague-Dawley rat at 10 mg/kg, po by LC/MS analysis
Assay type: ADME, organism-based
Design: dose 10 mg/kg, route oral
Settings: in vivo
readout_kind: Tmax

-- ask Determine from records and report Tmax for "CCn1nc(C#Cc2cc(C(=O)Nc3ccc(CN4CCN(C)CC4)c(C(F)(F)F)c3)ccc2C)c2c(N)ncnc21"
-- reply 12 h

----------
Biological target: Cyclin-dependent kinase 2 (Homo sapiens, UniProt P24941)
readout_kind: IC50

-- ask Determine from records and report IC50 for "CCn1nc(C#Cc2cc(C(=O)Nc3ccc(CN4CCN(C)CC4)c(C(F)(F)F)c3)ccc2C)c2c(N)ncnc21"
-- reply > 10 µM

----------
Target: Mitogen-activated protein kinase 8 (Homo sapiens, UniProt P45983)
Sequence (P45983 whole entry, looked up): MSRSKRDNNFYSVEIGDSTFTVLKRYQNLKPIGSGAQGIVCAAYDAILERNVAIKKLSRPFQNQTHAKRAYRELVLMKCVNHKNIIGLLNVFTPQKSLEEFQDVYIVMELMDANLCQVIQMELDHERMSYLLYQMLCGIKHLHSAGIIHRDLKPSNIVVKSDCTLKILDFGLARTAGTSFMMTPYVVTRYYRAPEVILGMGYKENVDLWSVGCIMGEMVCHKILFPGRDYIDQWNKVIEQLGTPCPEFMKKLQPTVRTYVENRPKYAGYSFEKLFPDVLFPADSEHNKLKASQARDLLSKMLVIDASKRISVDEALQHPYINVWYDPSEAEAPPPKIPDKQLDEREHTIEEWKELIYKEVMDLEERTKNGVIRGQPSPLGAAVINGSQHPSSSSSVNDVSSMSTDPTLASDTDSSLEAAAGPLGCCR
Experiment: Inhibition of human JNK1alpha1
pIC50: −log10 of the molar value.
readout_kind: pIC50

-- ask Determine from records and report pIC50 for "CCn1nc(C#Cc2cc(C(=O)Nc3ccc(CN4CCN(C)CC4)c(C(F)(F)F)c3)ccc2C)c2c(N)ncnc21"
-- reply < 5.00

----------
Experiment: Clearance in Sprague-Dawley rat at 10 mg/kg, po by LC/MS analysis
Format: ADME, organism-based
Set-up: dose 10 mg/kg, route oral
Details: in vivo
readout_kind: CL/F (mL/min/kg)
Write the answer as a number in mL/min/kg, unit excluded.

-- ask Determine from records and report CL/F for "CCn1nc(C#Cc2cc(C(=O)Nc3ccc(CN4CCN(C)CC4)c(C(F)(F)F)c3)ccc2C)c2c(N)ncnc21"
-- reply 35

----------
Assay: Cytotoxicity against human MDA-MB-436 cells assessed as cell viability after 72 hrs by MTT assay
Type: functional, cell-based
Details: MDA-MB-436, 72 h
readout_kind: pIC50
To interpret pIC50, take it as minus log10 of a concentration measured in moles per litre.

-- ask Determine from records and report pIC50 for "CCn1nc(C#Cc2cc(C(=O)Nc3ccc(CN4CCN(C)CC4)c(C(F)(F)F)c3)ccc2C)c2c(N)ncnc21"
-- reply 6.50

----------
Assay: Cmax in Sprague-Dawley rat at 10 mg/kg, po by LC/MS analysis
Type: ADME, organism-based
Set-up: dose 10 mg/kg, route oral
Settings: in vivo
readout_kind: Cmax (ng/mL)
Write the answer as a number in ng/mL, unit excluded.

-- ask Determine from records and report Cmax for "CCn1nc(C#Cc2cc(C(=O)Nc3ccc(CN4CCN(C)CC4)c(C(F)(F)F)c3)ccc2C)c2c(N)ncnc21"
-- reply 215

----------
Molecular target: Focal adhesion kinase 1 (Homo sapiens, UniProt Q05397)
Sequence (Q05397 whole entry): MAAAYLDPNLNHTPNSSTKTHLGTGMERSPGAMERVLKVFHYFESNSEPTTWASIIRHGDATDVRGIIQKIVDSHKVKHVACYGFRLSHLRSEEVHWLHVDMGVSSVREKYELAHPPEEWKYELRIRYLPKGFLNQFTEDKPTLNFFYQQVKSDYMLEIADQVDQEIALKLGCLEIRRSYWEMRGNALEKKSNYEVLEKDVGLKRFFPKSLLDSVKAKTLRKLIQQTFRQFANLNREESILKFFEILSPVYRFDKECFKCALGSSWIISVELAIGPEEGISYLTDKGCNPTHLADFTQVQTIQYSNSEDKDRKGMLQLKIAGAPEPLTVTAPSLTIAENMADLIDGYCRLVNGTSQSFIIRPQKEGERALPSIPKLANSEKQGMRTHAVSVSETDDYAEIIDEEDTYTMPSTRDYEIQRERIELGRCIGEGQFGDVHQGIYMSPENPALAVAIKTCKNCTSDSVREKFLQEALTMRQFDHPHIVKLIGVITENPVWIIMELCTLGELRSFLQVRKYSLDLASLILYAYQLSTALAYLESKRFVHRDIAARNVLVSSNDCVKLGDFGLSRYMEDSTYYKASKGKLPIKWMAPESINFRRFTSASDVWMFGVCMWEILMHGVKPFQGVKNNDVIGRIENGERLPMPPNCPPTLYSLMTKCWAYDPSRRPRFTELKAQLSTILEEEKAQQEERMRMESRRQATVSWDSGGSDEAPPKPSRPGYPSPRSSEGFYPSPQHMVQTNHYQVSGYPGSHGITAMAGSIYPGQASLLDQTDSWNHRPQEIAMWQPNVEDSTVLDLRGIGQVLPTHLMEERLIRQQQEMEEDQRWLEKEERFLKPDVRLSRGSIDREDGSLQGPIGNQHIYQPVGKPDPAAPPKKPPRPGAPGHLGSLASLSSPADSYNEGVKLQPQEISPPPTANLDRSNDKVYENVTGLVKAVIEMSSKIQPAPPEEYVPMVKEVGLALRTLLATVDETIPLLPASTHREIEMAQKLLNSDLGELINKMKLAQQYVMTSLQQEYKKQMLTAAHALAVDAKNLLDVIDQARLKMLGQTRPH
pIC50: −log10 of the molar value.
readout_kind: pIC50

-- ask Output reported pIC50 of the compound "CCn1nc(C#Cc2cc(C(=O)Nc3ccc(CN4CCN(C)CC4)c(C(F)(F)F)c3)ccc2C)c2c(N)ncnc21" on Focal adhesion kinase 1 (Homo sapiens, UniProt Q05397).
-- reply < 5.00

----------
Target: RAC-alpha serine/threonine-protein kinase (Homo sapiens, UniProt P31749)
Sequence (P31749 whole entry): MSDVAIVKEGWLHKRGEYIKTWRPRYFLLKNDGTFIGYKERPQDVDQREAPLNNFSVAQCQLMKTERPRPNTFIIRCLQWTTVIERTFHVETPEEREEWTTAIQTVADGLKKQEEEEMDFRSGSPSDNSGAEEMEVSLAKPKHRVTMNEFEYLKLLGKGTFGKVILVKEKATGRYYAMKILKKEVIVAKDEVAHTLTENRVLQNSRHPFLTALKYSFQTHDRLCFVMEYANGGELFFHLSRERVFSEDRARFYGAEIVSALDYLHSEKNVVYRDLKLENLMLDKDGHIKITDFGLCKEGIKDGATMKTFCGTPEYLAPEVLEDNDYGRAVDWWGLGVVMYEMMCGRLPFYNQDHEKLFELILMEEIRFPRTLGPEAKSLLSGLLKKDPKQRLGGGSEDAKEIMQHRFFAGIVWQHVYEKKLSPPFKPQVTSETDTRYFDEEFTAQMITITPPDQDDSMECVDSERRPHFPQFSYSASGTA
pIC50: −log10 of the molar value.
readout_kind: pIC50

-- ask Determine from records and report pIC50 for "CCn1nc(C#Cc2cc(C(=O)Nc3ccc(CN4CCN(C)CC4)c(C(F)(F)F)c3)ccc2C)c2c(N)ncnc21"
-- reply < 5.00
